# assayRemarks: in vitro
# experimentalSetup: human, hela cells, % viability
Would you mind telling me the reported viability at 28.5 h, 10 µM of each entry?
Value expressed in %; do not type the unit.

QUERY: Entry CS(=O)(=O)N1C2CCC(C2)[C@H]1COc1ccc(F)cc1 (some centres unmarked) [CBK285279] : reported viability at 28.5 h, 10 µM = ?
RESULT: 108

QUERY: Entry CC(C)(C)SCCNc1nc(Cl)nc(N2CCSCC2)n1 [CBK018768] : reported viability at 28.5 h, 10 µM = ?
RESULT: 80.2

QUERY: Entry O=C(O)c1cccc(S(=O)(=O)Nc2nc3ccccc3s2)c1 [CBK161138] : reported viability at 28.5 h, 10 µM = ?
RESULT: 102

QUERY: Entry c1cnc2[nH]c(C3CCNCC3)c(CN3CCCCCC3)c2c1 [CBK285057] : reported viability at 28.5 h, 10 µM = ?
RESULT: 102

QUERY: Entry COc1ccccc1-c1noc(CSc2nnc(-c3ccccc3)n2-c2ccc(C)c(C)c2)n1 [CBK269058] : reported viability at 28.5 h, 10 µM = ?
RESULT: 105

The values you see were collected from paper PMC12040169.
